Test: Phase 1 Stage 1 clinical pharmacokinetics of SC ZA co-administered with rHuPH20
Assay type: in vivo, human
Conditions: human, serum, sc, serum; ZA 0.25 mg SC infusion + 24000 Units rHuPH20; 0.5 h post infusion; n=3; read-out: Median Conc.
Test Readout: concentration at 0.5 h
Include the unit right after the number.

Task: Could you share which concentration at 0.5 h value was measured for O=P(O)(O)C(O)(Cn1ccnc1)P(=O)(O)O [ZA] ?
Result: 6.25 ng/mL

----------
Test: Pharmacokinetics of ZA in pig serum after IV or SC infusion with or without rHuPH20 (LC-MS-MS, non-compartmental analysis)
Type: in vivo
Details: female, Yorkshire, pig, serum, sc, […], pig 70; SC ZA […], 10 mL over 1.6 min, no rHuPH20; read-out: SC Bioavailability (0-8 h)
Test Readout: bioavailability (%)
Numeric answer only, unit % assumed.

Task: Could you share which bioavailability value was measured for O=P(O)(O)C(O)(Cn1ccnc1)P(=O)(O)O ?
Result: 95.1

----------
Assay: Pharmacokinetics of ZA in pig serum after IV or SC infusion with or without rHuPH20 (LC-MS-MS, non-compartmental analysis)
Type: in vivo
Settings: female, Yorkshire, pig, serum, sc, […], pig 70; SC ZA […], 10 mL over 1.6 min, no rHuPH20; read-out: T½ λz (converted)
Test Readout: half-life

Task: Could you share which half-life value was measured for O=P(O)(O)C(O)(Cn1ccnc1)P(=O)(O)O ?
Result: 1.42 h

----------
Test: Pharmacokinetics of ZA in pig serum after IV or SC infusion with or without rHuPH20 (LC-MS-MS, non-compartmental analysis)
Format: in vivo
Details: female, Yorkshire, pig, serum, intravenous, […], animal ID 57, Study Group 1, IV 20 min infusion, ZA […], rHuPH20 0 U/mL, time 0.05 h; read-out: Zoledronic Acid Serum Concentration
Test Readout: concentration at 0.05 h
Include the unit right after the number.

Task: Could you share which concentration at 0.05 h value was measured for O=P(O)(O)C(O)(Cn1ccnc1)P(=O)(O)O [ZA] ?
Result: 446 ng/mL

----------
Assay: Phase 1 Stage 1 clinical pharmacokinetics of SC ZA co-administered with rHuPH20
Assay type: in vivo, human
Conditions: human, serum, sc, ZA 2 mg SC + 24000 U rHuPH20; individual subjects; read-out: Vss/F
Test Readout: Vd/F
Include the unit right after the number.

Task: Could you share which Vd/F value was measured for O=P(O)(O)C(O)(Cn1ccnc1)P(=O)(O)O ?
Result: 0.774 L/kg

----------
Experiment: Phase 1 Stage 1 clinical pharmacokinetics of SC ZA co-administered with rHuPH20
Assay type: in vivo, human
Conditions: human, serum, sc, serum; ZA 0.25 mg SC infusion + 24000 Units rHuPH20; 4 h post infusion; n=3; read-out: Median Conc.
Test Readout: concentration at 4 h

Task: Could you share which concentration at 4 h value was measured for O=P(O)(O)C(O)(Cn1ccnc1)P(=O)(O)O ?
Result: 3.06 ng/mL

----------
Experiment: Phase 1 Stage 1 clinical pharmacokinetics of SC ZA co-administered with rHuPH20
Assay type: in vivo, human
Details: human, serum, sc, 0.0776 mg/kg, AUC (0-48 h), Subj 70; ZA 0.0776 mg/kg SC; inf […]; PH20 2928 U
Test Readout: AUC(0-t) (ng·h/mL)
Numeric answer only, unit ng·h/mL assumed.

Task: Could you share which AUC(0-t) value was measured for O=P(O)(O)C(O)(Cn1ccnc1)P(=O)(O)O ?
Result: 658
